Where do the numbers come from? From patent US20180230200A1.

testTarget: gH/gL/UL128/UL130/UL131A pentamer complex (PC) of HCMV strain TB40/E virus (human cytomegalovirus strain TB40/E)
assayComment: cell-based or functional assay
observationType: IC50, neutralization of TB40/E infection of CTB (µg/mL)
Response body: numeric value in µg/mL, unit text excluded.

Let me know recorded IC50, neutralization of TB40/E infection of CTB for 21F6 (antibody, V domains shown, also called NAb 21F6) VH: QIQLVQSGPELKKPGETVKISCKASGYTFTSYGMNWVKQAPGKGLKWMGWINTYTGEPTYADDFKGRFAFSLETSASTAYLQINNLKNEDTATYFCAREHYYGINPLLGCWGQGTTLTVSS VL: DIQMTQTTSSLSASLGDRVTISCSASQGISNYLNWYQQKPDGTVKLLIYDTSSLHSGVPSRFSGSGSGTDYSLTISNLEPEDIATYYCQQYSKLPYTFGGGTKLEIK , thanks. 0.0307

Let me know recorded IC50, neutralization of TB40/E infection of CTB for 13B5 (antibody, V domains shown, also called NAb 13B5; 1365) VH: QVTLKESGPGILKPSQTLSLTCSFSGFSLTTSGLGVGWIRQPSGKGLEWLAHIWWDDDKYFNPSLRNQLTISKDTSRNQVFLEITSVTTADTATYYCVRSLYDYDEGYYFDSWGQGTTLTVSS VL: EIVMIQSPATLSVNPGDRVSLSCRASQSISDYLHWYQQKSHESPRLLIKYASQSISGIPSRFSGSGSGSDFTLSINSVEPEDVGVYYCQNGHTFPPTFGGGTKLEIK , thanks. 0.0998

Let me know recorded IC50, neutralization of TB40/E infection of CTB for 54E11 (antibody, V domains shown, also called NAb 54E11) VH: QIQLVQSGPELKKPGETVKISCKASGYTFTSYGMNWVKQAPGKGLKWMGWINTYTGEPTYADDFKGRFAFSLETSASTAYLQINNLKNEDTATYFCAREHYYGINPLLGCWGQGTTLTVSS VL: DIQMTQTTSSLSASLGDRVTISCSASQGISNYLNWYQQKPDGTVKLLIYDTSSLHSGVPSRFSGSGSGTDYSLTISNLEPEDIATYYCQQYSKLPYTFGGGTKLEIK , thanks. 0.0249

Let me know recorded IC50, neutralization of TB40/E infection of CTB for 12E2 (antibody, V domains shown, also called NAb 12E2) VH: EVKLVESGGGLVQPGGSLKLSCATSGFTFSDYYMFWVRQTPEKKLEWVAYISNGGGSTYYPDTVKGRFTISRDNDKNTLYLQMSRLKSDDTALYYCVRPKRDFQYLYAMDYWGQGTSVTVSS VL: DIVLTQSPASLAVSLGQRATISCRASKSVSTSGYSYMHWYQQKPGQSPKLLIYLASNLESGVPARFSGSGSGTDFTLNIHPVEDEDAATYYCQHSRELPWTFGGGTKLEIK , thanks. 0.0721
